// values below are reported Kd
- Tested on: HT29 cells
- method.summary: Apparent dissociation constant on flow cytometry
- Type: binding, human
- protocol.conditions: 4° C., 1 hour
Report only the number, with the unit µM understood.

Given `QRHKPRE` , report its Kd on HT29 cells.
0.05

Continue with the next substance.
Given QRHKPRE (SEQ ID NO: 1) with Cy5.5 fluorophore attached via a GGGSK linker (SEQ ID NO: 18) on the C-terminus [QRH*-Cy5.5] , report its Kd on HT29 cells.
0.05
